# Test system: Plasmodium falciparum
# assay: Antimalarial schizonticidal activity against Plasmodium falciparum 3D7 infected erythrocytes at 1.25 ug/ml after 30-39 hrs
# Type: functional
# inhibition at 1.25 µg/mL annotations
Reply with just the number (in %).

Here's what some known entries look like.
CCOC(=O)C1=C(Nc2ccccc2)CC(c2cccnc2)N(c2ccccc2)C1c1cccnc1 (stereo unspecified); 100
CCN(CC)CCCC(C)Nc1ccnc2cc(Cl)ccc12 (stereo unspecified); 86
COC(=O)C1=C(Nc2ccc(Br)cc2)CC(c2ccc(OC)cc2)N(c2ccc(Br)cc2)C1c1ccc(OC)cc1 (stereo unspecified); 25
COC(=O)C1=C(Nc2ccccc2)CC(c2ccc(Br)cc2)N(c2ccccc2)C1c1ccc(Br)cc1 (stereo unspecified); 46
COC(=O)C1=C(Nc2ccccc2)CC(c2ccc(OCc3ccccc3)cc2)N(c2ccccc2)C1c1ccc(OCc2ccccc2)cc1 (stereo unspecified); 0

Q. // returns reported inhibition at 1.25 µg/mL for input COC(=O)C1=C(Nc2ccc(Cl)cc2)CC(c2ccc(F)cc2)N(c2ccc(Cl)cc2)C1c1ccc(F)cc1 (stereo unspecified)
A. 93
